biological target: Genome polyprotein (dengue virus type 2, UniProt P29990); type: functional, Thailand/16681/1984
Sequence (P29990 1346-1475 limits assumed): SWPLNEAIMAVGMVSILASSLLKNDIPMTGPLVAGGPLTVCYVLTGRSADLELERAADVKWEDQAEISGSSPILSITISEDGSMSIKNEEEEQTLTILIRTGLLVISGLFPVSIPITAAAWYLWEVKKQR
Sequence (P29990 1476-2093 limits assumed): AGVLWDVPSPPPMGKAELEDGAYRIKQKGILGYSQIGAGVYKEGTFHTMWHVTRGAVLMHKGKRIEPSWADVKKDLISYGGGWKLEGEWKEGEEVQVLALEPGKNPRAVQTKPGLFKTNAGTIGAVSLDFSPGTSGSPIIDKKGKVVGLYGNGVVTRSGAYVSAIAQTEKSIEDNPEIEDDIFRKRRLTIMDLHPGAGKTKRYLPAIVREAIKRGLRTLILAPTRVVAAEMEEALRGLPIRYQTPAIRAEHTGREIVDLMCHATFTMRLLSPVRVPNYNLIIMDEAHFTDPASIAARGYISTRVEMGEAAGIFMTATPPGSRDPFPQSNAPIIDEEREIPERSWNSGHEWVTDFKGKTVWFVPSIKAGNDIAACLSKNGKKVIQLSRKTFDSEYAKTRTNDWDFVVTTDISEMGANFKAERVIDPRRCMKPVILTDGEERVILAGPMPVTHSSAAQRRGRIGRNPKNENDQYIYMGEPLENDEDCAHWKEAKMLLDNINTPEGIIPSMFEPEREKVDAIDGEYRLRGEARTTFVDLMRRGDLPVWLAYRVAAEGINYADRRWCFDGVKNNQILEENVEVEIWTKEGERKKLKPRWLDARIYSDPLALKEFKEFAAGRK
property-measured: IC50

Known results for compounds:
O=C(Nc1ccc2c(c1)CNC2)c1cc(Cl)cc2c1CCC2: > 99.5 µM
NCc1cccc(NC(=O)c2cc(Br)cc(-n3cnnn3)c2)c1: > 99.5 µM
O=C(O)c1cc(Cl)ccc1NS(=O)(=O)c1ccc(OCc2cncnc2)cc1: > 99.5 µM
C[C@H]1CNC[C@H](C(=O)Nc2cccc(CN)c2)C1: > 99.5 µM
Cc1c(CN)cccc1NC(=O)c1cc(Cl)cc(NC(=O)OCc2ccccc2)c1: > 99.5 µM

**Query** So what IC50 did O=C(/C=C/c1ccc(N2CCNCC2)cc1)C(=O)N1CCOCC1 get with Genome polyprotein (dengue virus type 2, UniProt P29990)?
**Result** > 99.5 µM

**Query** So what IC50 did C=CCNC(=O)C1(NC(=O)c2cccc3c2CC(=O)N3)CCCCC1 get with Genome polyprotein (dengue virus type 2, UniProt P29990)?
**Result** > 99.5 µM

====

target: Genome polyprotein (dengue virus type 2); assay type: functional, Thailand/16681/1984
Collected IC50 values appear next to each entry.

Known results for molecules:
O=C1OCc2ccc(NC(=O)[C@H]3CNC4(CCCC4)C3)cc21: > 99.5 µM
NCc1cccc(NC(=O)[C@@H](NC(=O)OCc2ccccc2)c2ccc(OCc3nc4c(s3)COCC4)cc2)c1: > 99.5 µM
Cc1c(C(=O)Nc2n[nH]c3c2CNC3)cc(C2CC2)n1C: > 99.5 µM
O=C(Nc1ccc2c(c1)CNC2)c1cc(Cl)cc2[nH]c(-c3ccc(F)cc3O)nc12: 23.8 µM

**Query** So what IC50 did CCN(CC(=O)NC)C(=O)c1cc(Cl)ccc1NS(=O)(=O)c1ccc(Oc2ccccc2Cl)cc1 get with Genome polyprotein (dengue virus type 2)?
**Result** 70 µM

**Query** So what IC50 did CN(c1ccc2c(c1)CNC2)[C@H](C(=O)NCC(F)F)c1cc(Cl)cc(C2CC2)c1 get with Genome polyprotein (dengue virus type 2)?
**Result** > 99.5 µM

====

molecular target: Genome polyprotein (dengue virus type 2, UniProt P29990); format: functional, Thailand/16681/1984
pIC50: −log10 of the molar value.
property-measured: pIC50

Known results for compounds:
NC1(c2cc(C(F)(F)F)ccc2NS(=O)(=O)c2ccc(Oc3ccccc3Cl)cc2)CC1: < 4.00
NCc1cccc(NC(=O)[C@@]23CCC[C@H](C2)N3C(=O)OCc2ccccc2)c1: < 4.00
NCCNC(=O)c1cc(Cl)ccc1NS(=O)(=O)c1ccc(Oc2ccccc2Cl)cc1: < 4.00
NCc1cc(C(=O)O)cc([C@@H]2C[C@H]2c2cc(Cl)cc(NC(=O)OCc3ccccc3)c2)c1: < 4.00

# next compound below
**Query** Look up pIC50 for this compound: Cc1cccc(-c2ccc([C@@H](NC(=O)OCc3ccccc3)C(=O)Nc3cccc(CN)c3)cc2)c1
**Result** 5.03

====

target: Genome polyprotein (dengue virus type 2, UniProt P29990); assay type: functional, Thailand/16681/1984
Collected IC50 values appear next to each entry.

N[C@H]1CCc2ccc(NC(=O)c3cc(Cl)cc4[nH]ncc34)cc21: > 99.5 µM

**Query** Look up IC50 for this molecule: NCc1cccc(NC(=O)[C@@H](NC(=O)OCc2ccccc2)c2ccc(-c3ccnc4[nH]ccc34)cc2)c1
**Result** > 99.5 µM

**Query** Look up IC50 for this molecule: NCc1ccc2c(c1)[C@H](N1CCCC1=O)C[C@H](c1cc(Cl)cc(NC(=O)OCc3ccccc3)c1)N2
**Result** > 99.5 µM

**Query** Look up IC50 for this molecule: NCc1cccc(NC(=O)c2cc(Cl)ccc2OC2CCCC2)c1
**Result** > 99.5 µM

**Query** Look up IC50 for this molecule: C[C@H]1NCc2cc(NC(=O)c3cc(F)cc4[nH]ncc34)ccc21
**Result** 69.8 µM

**Query** Look up IC50 for this molecule: CC(=O)N(c1ccc2c(c1)CNC2)[C@]1(c2cc(Cl)cc(C3CC3)c2)CCCN(C)C1=O
**Result** > 99.5 µM

**Query** Look up IC50 for this molecule: O=C(Nc1ccc2c(c1)CNC2)[C@H]1CCCc2[nH]ncc21
**Result** > 99.5 µM

**Query** Look up IC50 for this molecule: Nc1noc2cccc(C(=O)Nc3ccc4c(c3)CNC4)c12
**Result** > 99.5 µM

**Query** Look up IC50 for this molecule: CN(C)[C@@H]1C[C@H](C(=O)Nc2cccc(CN)c2)CN(C(=O)OCc2ccccc2)C1
**Result** > 99.5 µM

**Query** Look up IC50 for this molecule: NCc1cccc(NC(=O)c2cc(Br)cc(NC(=O)OCc3ccccc3)c2)c1
**Result** 54.3 µM
